biological target: UniProtKB Q86WV6; experiment: Potency index, ratio of test compound EC50 to prodrug EC50 for activation of wild-type human STING expressed in human THP1-Dual cells co-expressing IRF3-activated ISRE assessed as IRF3 reporter activation measured after 30 mins by luciferase reporter gene assay; format: cell-based
Sequence (Q86WV6 whole entry): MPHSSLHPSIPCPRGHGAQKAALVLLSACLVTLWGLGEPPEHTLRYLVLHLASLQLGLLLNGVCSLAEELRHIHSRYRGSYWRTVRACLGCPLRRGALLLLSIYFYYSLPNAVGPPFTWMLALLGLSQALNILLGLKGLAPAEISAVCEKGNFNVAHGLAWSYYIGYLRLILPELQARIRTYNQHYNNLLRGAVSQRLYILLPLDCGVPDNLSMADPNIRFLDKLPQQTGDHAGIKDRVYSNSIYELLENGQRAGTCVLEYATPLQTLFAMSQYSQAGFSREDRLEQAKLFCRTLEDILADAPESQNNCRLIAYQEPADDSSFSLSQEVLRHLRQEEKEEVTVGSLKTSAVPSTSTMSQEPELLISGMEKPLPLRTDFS
# if value of Ratio EC50 reaches 60, tag criterion met; if it stays below, tag criterion not met

Take a look at these entries with their results.
[
  {
    "SMILES_NOTATION": "CC(C)(C)C(=O)OCS[P@]1(=O)OC[C@H]2O[C@@H](n3cnc4c(N)ncnc43)[C@H](F)[C@@H]2O[P@](=O)(SCOC(=O)C(C)(C)C)OC[C@H]2O[C@@H](n3cnc4c(N)ncnc43)[C@H](F)[C@@H]2O1",
    "ASSAYED_SYSTEM": "UniProtKB Q86WV6",
    "QUALITATIVE_LABEL": "criterion not met"
  },
  {
    "SMILES_NOTATION": "CC(C)(C)C(=O)OCS[P@@]1(=O)OC[C@H]2O[C@@H](n3cnc4c(N)ncnc43)[C@H](F)[C@@H]2O[P@@](=O)(SCOC(=O)C(C)(C)C)OC[C@H]2O[C@@H](n3cnc4c(N)ncnc43)[C@H](F)[C@@H]2O1",
    "ASSAYED_SYSTEM": "UniProtKB Q86WV6",
    "QUALITATIVE_LABEL": "criterion met"
  },
  {
    "SMILES_NOTATION": "CCC(CC)C(=O)OCO[P@]1(=O)OC[C@H]2O[C@@H](n3cnc4c(N)ncnc43)[C@H](F)[C@@H]2OP(=O)(O)OC[C@H]2O[C@@H](n3cnc4c(N)ncnc43)[C@H](F)[C@@H]2O1",
    "ASSAYED_SYSTEM": "UniProtKB Q86WV6",
    "QUALITATIVE_LABEL": "criterion not met"
  },
  {
    "SMILES_NOTATION": "CC(C)(C)C(=O)OCS[P@@]1(=O)OC[C@H]2O[C@@H](n3cnc4c(N)ncnc43)[C@H](F)[C@@H]2O[P@](=O)(SCOC(=O)C(C)(C)C)OC[C@H]2O[C@@H](n3cnc4c(N)ncnc43)[C@H](F)[C@@H]2O1",
    "ASSAYED_SYSTEM": "UniProtKB Q86WV6",
    "QUALITATIVE_LABEL": "criterion met"
  },
  {
    "SMILES_NOTATION": "Nc1ncnc2c1ncn2[C@@H]1O[C@@H]2CO[P@@](=O)(OCOC(=O)c3ccccc3)O[C@H]3[C@@H](F)[C@H](n4cnc5c(N)ncnc54)O[C@@H]3COP(=O)(O)O[C@H]2[C@H]1F",
    "ASSAYED_SYSTEM": "UniProtKB Q86WV6",
    "QUALITATIVE_LABEL": "criterion not met"
  }
]

# check: Ratio EC50 of CC(C)(C)C(=O)OCO[P@]1(=O)OC[C@H]2O[C@@H](n3cnc4c(N)ncnc43)[C@H](F)[C@@H]2OP(=O)(O)OC[C@H]2O[C@@H](n3cnc4c(N)ncnc43)[C@H](F)[C@@H]2O1 is greater than or equal to 60 criterion not met

# check: Ratio EC50 of CC(C)OC(=O)OCO[P@]1(=O)OC[C@H]2O[C@@H](n3cnc4c(N)ncnc43)[C@H](F)[C@@H]2OP(=O)(O)OC[C@H]2O[C@@H](n3cnc4c(N)ncnc43)[C@H](F)[C@@H]2O1 is greater than or equal to 60 criterion not met

Origin of the recorded values: ChEMBL document CHEMBL5036318
